# EC50 annotations
- TARGET_DESC: mu opioid receptor (MOR) (Homo sapiens)
- TEST: Hit Hunter cAMP signaling assay (adenylyl cyclase inhibition), PAM mode with EC20 endomorphin-1
- Type: cell-based
- REPORTED_CONDITIONS: adenylyl cyclase inhibition; read-out: cAMP EC50

# example entries with known answers
{"COMPOUND": "O=S(=O)(c1ccc(Cl)cc1)N1CCCCC1c1ccc(F)nc1 (racemic) [compound 53]", "TARGET_DESC": "mu opioid receptor (MOR) (Homo sapiens)", "EC50": "> 2.1 µM"}
{"COMPOUND": "CC1CC(c2cccc(C(F)(F)F)n2)N(c2nc(Cl)ncc2F)C1 (single isomer, unassigned) [compound 221]", "TARGET_DESC": "mu opioid receptor (MOR) (Homo sapiens)", "EC50": "> 2.1 µM"}
{"COMPOUND": "O=S(=O)(c1ccc(Cl)cc1)N1CCCCC1c1ccc(F)cc1 (racemic) [compound 78]", "TARGET_DESC": "mu opioid receptor (MOR) (Homo sapiens)", "EC50": "< 0.7 µM"}
{"COMPOUND": "O=S(=O)(c1ccc(Cl)cc1)N1CCCCC1c1ccc(F)c(C(F)(F)F)c1 (racemic) [compound 55]", "TARGET_DESC": "mu opioid receptor (MOR) (Homo sapiens)", "EC50": "0.7 to 2.1 µM"}
{"COMPOUND": "Fc1ccc(C2CSCCN2c2nc(Cl)ncc2F)cc1Cl (centres unmarked) [Compound 460]", "TARGET_DESC": "mu opioid receptor (MOR) (Homo sapiens)", "EC50": "> 2.1 µM"}
{"COMPOUND": "O=S(=O)(c1ccc(Cl)cc1)N1CCCCC1c1cc(C(F)(F)F)ccn1 (racemic) [compound 79]", "TARGET_DESC": "mu opioid receptor (MOR) (Homo sapiens)", "EC50": "> 2.1 µM"}
{"COMPOUND": "Fc1cnc(Cl)nc1N1CCCCCC1c1cccc(C(F)(F)F)n1 (centres unmarked) [compound 253]", "TARGET_DESC": "mu opioid receptor (MOR) (Homo sapiens)", "EC50": "> 2.1 µM"}

Entry O=S(=O)(c1ccc(Cl)cc1)N1CCCCC1c1cncc(C(F)(F)F)n1 (centres unmarked) [compound 63] has what EC50?
> 2.1 µM

---

pEC50 listing for selected compounds.
- TARGET_DESC: mu opioid receptor (MOR) (Homo sapiens)
- TEST: PathHunter β-arrestin recruitment assay, PAM mode with EC20 endomorphin-1
- Type: cell-based
- REPORTED_CONDITIONS: β-arrestin recruitment; read-out: β-arr. EC50
pEC50: −log10 of the molar value.

Below, 10 compounds whose answers are already recorded.
{"COMPOUND": "CC1CCN(S(=O)(=O)c2ccc(Cl)cc2)C1c1ccc(OC(F)(F)F)c(Br)c1 (mixture of isomers) [Compound 94]", "OBSERVED_MEASUREMENT": "> 6.15"}
{"COMPOUND": "N#Cc1cccc(N2CCCCC2c2ccc(F)c(Cl)c2)c1 (stereo not shown) [compound 218]", "OBSERVED_MEASUREMENT": "5.68 to 6.15"}
{"COMPOUND": "Cn1cnc2cc(C(F)(F)F)cc(C3CCCCN3c3nc(Cl)ncc3F)c21 (stereo not shown) [compound 300]", "OBSERVED_MEASUREMENT": "< 5.68"}
{"COMPOUND": "Cc1ncc(F)c(N2CCCCC2c2cccc(F)n2)n1 (stereo not shown) [compound 270]", "OBSERVED_MEASUREMENT": "< 5.68"}
{"COMPOUND": "FC(F)(F)c1cccc(C2CCCCN2Cc2cc(Cl)ccc2Cl)n1 (stereo not shown) [compound 176]", "OBSERVED_MEASUREMENT": "5.68 to 6.15"}
{"COMPOUND": "Fc1cnc(Cl)nc1N1CCCCC1c1ccc2ncccc2c1 (stereo not shown) [compound 326]", "OBSERVED_MEASUREMENT": "> 6.15"}
{"COMPOUND": "Fc1cnc(Cl)nc1N1CC(F)CC1c1cccc(C(F)(F)F)n1 (stereo not shown) [compound 481]", "OBSERVED_MEASUREMENT": "< 5.68"}
{"COMPOUND": "OC1CCN(c2nc(Cl)ncc2F)C(c2cccc(C(F)(F)F)c2)C1 (stereo not shown) [compound 202]", "OBSERVED_MEASUREMENT": "< 5.68"}
{"COMPOUND": "O=S(=O)(c1ccc(Cl)cc1)N1CCCCC1c1ccc(F)c(Br)c1 (single isomer, unassigned) [compound 56]", "OBSERVED_MEASUREMENT": "< 5.68"}
{"COMPOUND": "[2H]C1(c2cccc(C(F)(F)F)c2)C(F)CCCN1c1nc(Cl)ncc1F (single isomer, unassigned) [compound 209]", "OBSERVED_MEASUREMENT": "5.68 to 6.15"}

Fill blank: measured pEC50 of the compound COc1ccc(C2CC(C)CN2c2nc(Cl)ncc2F)cc1Br (stereo not shown) [compound 237] is ____.
< 5.68

May I ask what pEC50 has been recorded for CN(C)CC(=O)N1CCN(c2nc(Cl)ncc2F)C(c2cc(F)cc(C(F)(F)F)c2)C1 (racemic) [Compound 306] ?
< 5.68

For the compound shown here, FC(F)(F)c1cccc(C2CCCCN2c2ccnc(Cl)c2)c1 (stereo not shown) [compound 359] , give the reported pEC50.
> 6.15

So what does the record say about pEC50 for COc1ccc(C2N(S(=O)(=O)c3ccc(Cl)cc3)CCC2(F)F)cc1Br (racemic) [Compound 85] ?
< 5.68

For the compound Fc1cc(C2CCC(F)CN2c2nc(Cl)ncc2F)cc(C(F)(F)F)c1 (stereo not shown) [compound 313] , what pEC50 is on record?
< 5.68

I'd like to know its pEC50. The compound in question is Fc1ccc(C2CC(F)CN2c2nc(Cl)ncc2F)cc1Cl (stereo not shown) [compound 464]
< 5.68

Sample [N-]=[N+]=Nc1cccc(C2CCCCN2Cc2cc(Cl)ccc2F)n1 (stereo not shown) [compound 144] — what was its pEC50?
< 5.68

Sample CC(C)(O)C(=O)N1CCN(c2nc(Cl)ncc2F)C(c2cc(F)cc(C(F)(F)F)c2)C1 (racemic) [Compound 307] — what was its pEC50?
< 5.68

Fill blank: measured pEC50 of the compound FC(F)(F)c1cccc(C2CCCCN2Cc2cc(Cl)cc(Cl)c2)n1 (stereo not shown) [compound 159] is ____.
5.68 to 6.15

Which pEC50 reading was recorded for the compound O=S(=O)(c1ccc(Cl)cc1)N1CCCCC1c1cncc(C(F)(F)F)c1 (racemic) [compound 83] ?
< 5.68

Which value of pEC50 has been reported for Fc1cnc(Cl)nc1N1CC(F)(F)CC1c1cccc(C(F)(F)F)n1 (stereo not shown) [compound 482] in the records?
< 5.68

---

- TARGET_DESC: mu opioid receptor (MOR) (Homo sapiens, UniProt P35372)
- Sequence (P35372 whole entry): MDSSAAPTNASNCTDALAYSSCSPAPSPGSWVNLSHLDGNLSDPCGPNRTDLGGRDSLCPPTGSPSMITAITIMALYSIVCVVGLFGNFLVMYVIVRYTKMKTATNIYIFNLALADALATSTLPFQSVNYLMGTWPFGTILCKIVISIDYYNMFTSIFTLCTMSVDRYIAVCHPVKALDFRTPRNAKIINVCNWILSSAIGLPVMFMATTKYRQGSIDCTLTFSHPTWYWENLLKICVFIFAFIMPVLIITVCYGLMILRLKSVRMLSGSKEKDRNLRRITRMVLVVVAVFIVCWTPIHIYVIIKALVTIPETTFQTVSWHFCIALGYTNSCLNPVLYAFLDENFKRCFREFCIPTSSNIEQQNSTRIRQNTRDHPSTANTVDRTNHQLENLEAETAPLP
- TEST: PathHunter β-arrestin recruitment assay, PAM mode with EC20 endomorphin-1
- Type: cell-based
- REPORTED_CONDITIONS: maximal response for β-arrestin recruitment, Table 3
METRIC_NAME: β-arr. Max Resp.
Just the number, please, no unit after it.

Example results:
{"MOLECULE": "Fc1ccc(Cl)cc1CN1CCCCC1c1cccc(C(F)(F)F)n1 (stereo not drawn)", "OBSERVED_MEASUREMENT": 72}
{"MOLECULE": "COc1ccc(C2CCCCN2S(=O)(=O)c2ccccc2)cc1Br (stereo not drawn)", "OBSERVED_MEASUREMENT": 111}
{"MOLECULE": "CC1CCN(S(=O)(=O)c2ccc(Cl)cc2)C1c1ccc(F)c(C(F)(F)F)c1 (mixture of isomers)", "OBSERVED_MEASUREMENT": 76}
{"MOLECULE": "[2H]C1(c2cccc(C(F)(F)F)c2)C(F)CCCN1c1nc(Cl)ncc1F (stereo not drawn)", "OBSERVED_MEASUREMENT": 116}
{"MOLECULE": "O=S(=O)(c1ccc(Cl)cc1)N1CCCCC1c1ccc2c(c1)OCO2 (stereo not drawn)", "OBSERVED_MEASUREMENT": 99}

Next, consider the following molecule.
Give the measured β-arr. Max Resp. of Fc1ccc(C2CCCCN2Cc2cccc(Cl)n2)cc1Cl (stereo not drawn) .
138

---

- TARGET_DESC: mu opioid receptor (MOR) (Homo sapiens, UniProt P35372)
- TEST: Hit Hunter cAMP signaling assay (adenylyl cyclase inhibition), PAM mode with EC20 endomorphin-1
- Type: cell-based
- REPORTED_CONDITIONS: cAMP EC50, adenylyl cyclase inhibition
pEC50: −log10 of the molar value.
Each item that follows carries a reported pEC50.

{"MOLECULE": "Fc1cnc(Cl)nc1N1CCCCC1c1cccc(C(F)(F)F)c1 (single isomer, unassigned) [compound 8]", "METRIC_NAME": "pEC50", "OBSERVED_MEASUREMENT": "5.68 to 6.15"}
{"MOLECULE": "Fc1cnc(Cl)nc1N1CCCCC1c1cccc(C(F)(F)F)c1 (stereo not drawn) [compound 7]", "METRIC_NAME": "pEC50", "OBSERVED_MEASUREMENT": "> 6.15"}
{"MOLECULE": "COc1ccc(C2C(F)CCCN2c2nc(Cl)ncc2F)cc1Br (stereo not drawn)", "METRIC_NAME": "pEC50", "OBSERVED_MEASUREMENT": "< 5.68"}

What measured pEC50 is associated with CCN(CC)c1ncc(F)c(N2CCCCC2c2cccc(C(F)(F)F)c2)n1 (stereo not drawn) on mu opioid receptor (MOR) (Homo sapiens, UniProt P35372)?
< 5.68

API: value(readout=pEC50, system=mu opioid receptor (MOR) (Homo sapiens, UniProt P35372)) for record COc1ccc(C2CCCCN2S(C)(=O)=O)cc1Br (stereo not drawn)
< 5.68

Query pEC50 on mu opioid receptor (MOR) (Homo sapiens, UniProt P35372) for Cc1cc(C2CCCCN2c2nc(Cl)ncc2F)ccc1F (stereo not drawn)
5.68 to 6.15

What reported pEC50 corresponds to O=S(=O)(c1ccc(Cl)cc1)N1CCCCC1c1cccc(C(F)(F)F)n1 (stereo not drawn) on mu opioid receptor (MOR) (Homo sapiens, UniProt P35372)?
> 6.15

Hi! What's the reported pEC50 for CN(C)c1cccc(C2CCCCN2Cc2cc(Cl)ccc2F)n1 (stereo not drawn) on mu opioid receptor (MOR) (Homo sapiens, UniProt P35372)?
< 5.68

Lab note: need pEC50 with mu opioid receptor (MOR) (Homo sapiens, UniProt P35372) for entry FC(F)(F)c1cccc(C2CCCCN2Cc2cc(Cl)ccc2Cl)n1 (stereo not drawn) , please look it up.
5.68 to 6.15

These measurements were taken from patent US11071731B2.
